# test: gradient 5% acetonitrile 3 min, to 50% in 2 min, to 85% in 15 min, held 3 min, 100 µL/min
# cond: column: Zorbax Extend-C18 2.1 x 50 mm; eluents: water / acetonitrile, 0.1% formic acid
reported_endpoint: RP-LC retention time (s)

(1) CCOc1ccccc1CN1C(=O)c2ccccc2C1C(=O)NC(C)CC (stereo unspecified)
(2) COc1ccc(CC(=O)N2CCc3nc(CNC(=O)C4CCC4)n(C)c3C2)cc1
Req: Identify the entry with the larger RP-LC retention time. Options: 1 and 2 Answer format: the label of the selected item.
Resp: 1

(A) COC(=O)c1cc(OCC(=O)Nc2cc(F)ccc2F)c2cc(OC)ccc2n1
(B) CC(C)CN1CCN(C(=O)c2nnc(-c3ccc(S(=O)(=O)N(C)C)cc3)o2)CC1
Req: Identify the entry with the larger RP-LC retention time. Options: A and B Answer format: the label of the selected item.
Resp: A
(A: 880 s, B: 608 s)

(a) COc1cccc(OCC2c3ccsc3CCN2C(=O)CN(CC2CCCO2)C(C)=O)c1 (stereo unspecified)
(b) O=C(Nc1ccccc1F)c1c(O)c2cccnc2n(-c2cccc(F)c2)c1=O
(c) COCC1(O)CCOC2(CCN(Cc3ccccc3F)CC2)C1 (stereo unspecified)
Req: Ranking field: RP-LC retention time; order: falling. Provide the ranking by listing each label in its place in the requested order.
Resp: b, a, c
(b: 1250 s, a: 788 s, c: 544 s)

(P) Cc1onc(C(=O)N2CCc3c(c(-c4nncn4C)nn3C)C2)c1Cn1cc(Cl)cn1
(Q) CC(C)Oc1ccc(-c2noc(Cn3ncn4nc(-c5ccc(F)cc5)cc4c3=O)n2)cc1
Req: Would you mind telling me which has the lower recorded RP-LC retention time between P and Q ? Answer format: the label of the selected item.
Resp: P

(P) COc1ccc(S(=O)(=O)N2CCCC(C(=O)Nc3cccc(Br)c3)C2)cc1Cl (stereo unspecified)
(Q) COc1ccc(NC(=O)NCC2CCOCC2)cc1F
Req: Would you mind telling me which has the lower recorded RP-LC retention time between P and Q ? Answer format: the label of the selected item.
Resp: Q

(A) O=C(NCc1cccc(Br)c1)C1CCCN(C(=O)Cc2cccc3ccccc23)C1 (stereo unspecified)
(B) CC1Cc2cc(-c3cc(CC(=O)Nc4nc5ccccc5[nH]4)no3)ccc2O1 (stereo unspecified)
Req: Identify the entry with the larger RP-LC retention time. Options: A and B Answer format: the label of the selected item.
Resp: A
(A: 978 s, B: 657 s)
